Test system: CYP3A4
test.name: Human CYP 3A4 induction assay (mRNA, cryopreserved human hepatocytes)
Type: in vitro ADME
setup.conditions: human hepatocytes, 10 uM test compound, 72 hours, mRNA, percent of control (rifampin positive control)
Field: CYP3A4 mRNA Induct Hu 10 uM POC. Provide a value for each of the compounds that follow.
Write the answer as a number in %, unit excluded.

Ask: Tell me measured CYP3A4 mRNA Induct Hu 10 uM POC for COc1cc([C@@H]2C[C@H]2C(F)(F)F)c(F)cc1-n1c(=O)cc(F)c2cc(S(=O)(=O)Nc3ccon3)ccc21 (atropisomer, axis not shown; (P)) [Example 44] please.
Result: 26.89

Ask: Tell me measured CYP3A4 mRNA Induct Hu 10 uM POC for COc1cc([C@@H]2C[C@H]2c2ccccc2)c(F)cc1-n1c(=O)ccc2cc(S(=O)(=O)Nc3ccon3)ccc21 (atropisomer, axis not shown; (P)) [Example 8] please.
Result: 27.54

Ask: Tell me measured CYP3A4 mRNA Induct Hu 10 uM POC for COc1cc([C@H]2C[C@@H]2C(F)(F)F)c(F)cc1-n1c(=O)ccc2cc(S(=O)(=O)Nc3ccon3)ccc21 (atropisomer, axis not shown; (P)) [Example 4] please.
Result: 15.9

Ask: Tell me measured CYP3A4 mRNA Induct Hu 10 uM POC for COc1cc([C@H]2C[C@@H]2C)c(F)cc1-n1c(=O)ccc2cc(S(=O)(=O)Nc3ccon3)ccc21 (atropisomer, axis not shown; (P)) [Example 7] please.
Result: 41.2

Ask: Tell me measured CYP3A4 mRNA Induct Hu 10 uM POC for COc1cc([C@@H]2C[C@H]2C(F)(F)F)c(Cl)cc1-n1c(=O)ccc2cc(S(=O)(=O)Nc3ncccn3)ccc21 (atropisomer, axis not shown; (P)) [Example 13] please.
Result: 92.47

Ask: Tell me measured CYP3A4 mRNA Induct Hu 10 uM POC for COc1cc([C@H]2C[C@@H]2C(F)(F)F)ccc1-n1c(=O)ccc2cc(S(=O)(=O)Nc3ccon3)ccc21 (atropisomer, axis not shown; (P)) [Example 39] please.
Result: 38.35

Ask: Tell me measured CYP3A4 mRNA Induct Hu 10 uM POC for COc1cc([C@@H]2C[C@H]2C(F)(F)F)c(F)cc1-n1c(=O)ccc2cc(S(=O)(=O)Nc3ncns3)ccc21 (atropisomer, axis not shown; (P)) [Example 34] please.
Result: 12.69

Ask: Tell me measured CYP3A4 mRNA Induct Hu 10 uM POC for COc1cc([C@@H]2C[C@H]2C(F)(F)F)ccc1-n1c(=O)ccc2cc(S(=O)(=O)Nc3ccon3)c(F)cc21 (atropisomer, axis not shown; (P)) [Example 47] please.
Result: 14.245

Ask: Tell me measured CYP3A4 mRNA Induct Hu 10 uM POC for COc1cc([C@H]2C[C@@H]2C(F)(F)F)c(C#N)cc1-n1c(=O)ccc2cc(S(=O)(=O)Nc3ccon3)ccc21 (atropisomer, axis not shown; (P)) [Example 37] please.
Result: 16.39

Ask: Tell me measured CYP3A4 mRNA Induct Hu 10 uM POC for COc1cc([C@H]2C[C@@H]2C(F)(F)F)c(Cl)cc1-n1c(=O)ccc2cc(S(=O)(=O)Nc3cccnn3)ccc21 (single isomer, unassigned) [Example 15] please.
Result: 69.11

Ask: Tell me measured CYP3A4 mRNA Induct Hu 10 uM POC for COc1cc([C@H]2C[C@@H]2C(F)(F)F)c(F)cc1-n1c(=O)ccc2cc(S(=O)(=O)Nc3ccon3)c(F)cc21 (single isomer, unassigned) [Example 46] please.
Result: 53.03

Ask: Tell me measured CYP3A4 mRNA Induct Hu 10 uM POC for COc1cc([C@@H]2C[C@H]2C(F)(F)F)c(F)cc1-n1c(=O)ccc2cc(S(=O)(=O)Nc3ncco3)ccc21 (atropisomer, axis not shown; (P)) [Example 35] please.
Result: 53.28

Ask: Tell me measured CYP3A4 mRNA Induct Hu 10 uM POC for COc1cc([C@@H]2C[C@H]2C(F)(F)F)c(C)cc1-n1c(=O)ccc2cc(S(=O)(=O)Nc3ccon3)ccc21 (atropisomer, axis not shown; (P)) [Example 26] please.
Result: 35.39

Ask: Tell me measured CYP3A4 mRNA Induct Hu 10 uM POC for COc1cc([C@@H]2C[C@H]2C)c(F)cc1-n1c(=O)ccc2cc(S(=O)(=O)Nc3ccon3)ccc21 (atropisomer, axis not shown; (P)) [Example 6] please.
Result: 25.49

Ask: Tell me measured CYP3A4 mRNA Induct Hu 10 uM POC for COc1cc(C2(C(F)(F)F)CC2)c(F)cc1-n1c(=O)ccc2cc(S(=O)(=O)Nc3ncccn3)ccc21 (atropisomer, axis not shown; (P)) [Example 23] please.
Result: 85.95

Ask: Tell me measured CYP3A4 mRNA Induct Hu 10 uM POC for COc1cc([C@@H]2C[C@H]2C(F)(F)F)c(F)cc1-n1c(=O)ccc2cc(S(=O)(=O)Nc3ncccn3)ccc21 (atropisomer, axis not shown; (P)) [Example 20] please.
Result: 67.47

Ask: Tell me measured CYP3A4 mRNA Induct Hu 10 uM POC for COc1cc(C2(C(F)(F)F)CC2)c(Cl)cc1-n1c(=O)ccc2cc(S(=O)(=O)Nc3ccon3)ccc21 (atropisomer, axis not shown; (P)) [Example 24] please.
Result: 100.7

Ask: Tell me measured CYP3A4 mRNA Induct Hu 10 uM POC for COc1cc([C@H]2C[C@@H]2C(F)(F)F)c(C)cc1-n1c(=O)ccc2cc(S(=O)(=O)Nc3ncccn3)ccc21 (atropisomer, axis not shown; (P)) [Example 29] please.
Result: 74.53

Ask: Tell me measured CYP3A4 mRNA Induct Hu 10 uM POC for COc1cc([C@H]2C[C@@H]2C(F)(F)F)c(F)cc1-n1c(=O)ccc2cc(S(=O)(=O)Nc3ncco3)ccc21 (atropisomer, axis not shown; (P)) [Example 36] please.
Result: 102.8

Ask: Tell me measured CYP3A4 mRNA Induct Hu 10 uM POC for COc1cc([C@@H]2C[C@H]2C(F)(F)F)c(Cl)cc1-n1c(=O)ccc2cc(S(=O)(=O)Nc3ccon3)ccc21 (atropisomer, axis not shown; (P)) [Example 18] please.
Result: 9.92

Ask: Tell me measured CYP3A4 mRNA Induct Hu 10 uM POC for COc1cc([C@H]2C[C@@H]2c2ccccc2)c(F)cc1-n1c(=O)ccc2cc(S(=O)(=O)Nc3ccon3)ccc21 (atropisomer, axis not shown; (P)) [Example 9] please.
Result: 37.165

Reference for the values: patent US11807634B2
